Quick reference: TGI of the listed items.
Test system: MDA-MB-435
Experiment: NCI tumour cell line growth inhibition, 48 h
Give the value in µM but do not write µM after it.

Q: Fill in TGI for record COc1cccc2c1C(=O)c1c(O)c3c(c(O)c1C2=O)C[C@@](O)(C(=O)CO)CC3OC1CC(O)C(O)C(C)O1 (stereo not given in full)
Ans: 2.05

Q: Quickly give me recorded TGI for N#Cc1c(N)nc(N)nc1N[C@H](c1nc2c(F)ccc(Cl)c2c(=O)n1-c1cccnc1)C1CC1
Ans: 34.4

Q: Look up TGI of CN(C)CCn1c(=O)c2ccc3c4c(nn3CCN(C)C)c3cc([N+](=O)[O-])ccc3n(c1=O)c24 and report it.
Ans: 0.219
